# Protocol Text: Modulation of classical complement pathway system assessed as hemoglobin release by spectrophotometry
Consider the following compounds; for each one, report its log10(IC50).
Note: values are log10 of IC50 expressed in µM.

Example cases with answers are listed next.
Compound	log10(IC50)
Oc1cc(O)c2c(c1)O[C@@]1(c3ccc(O)c(O)c3)Oc3cc(O)c4c(c3[C@@H]2[C@H]1O)O[C@H](c1ccc(O)c(O)c1)[C@@H](O)C4	1.76
Oc1cc(O)c2c(c1)O[C@H](c1ccc(O)c(O)c1)[C@H](O)[C@H]2c1c(O)cc2c(c1O)C[C@@H](O)[C@@H](c1ccc(O)c(O)c1)O2	1.71
Oc1cc(O)c2c(c1)O[C@H](c1cc(O)c(O)c(O)c1)[C@H](O)C2 [EPIGALLOCATECHIN]	1.29
Oc1cc(O)c2c(c1)O[C@H](c1ccc(O)c(O)c1)[C@@H](O)[C@@H]2c1c(O)cc(O)c2c1O[C@H](c1ccc(O)c(O)c1)[C@H](O)C2	1.66
Oc1cc(O)c2c(c1)O[C@H](c1ccc(O)c(O)c1)[C@H](O)[C@H]2c1c(O)cc(O)c2c1O[C@H](c1ccc(O)c(O)c1)[C@@H](O)C2	1.50

Provide each entry's log10(IC50) from the list below.
1. Oc1cc(O)c2c(c1)O[C@H](c1cc(O)c(Oc3cc(O)c4c(c3)O[C@H](c3cc(O)c(O)c(O)c3)[C@H](O)C4)c(O)c1)[C@@H](O)C2
2. O=C1c2c(O)cc(O)cc2O[C@H](c2ccc(O)c(O)c2)[C@H]1O [(+)-TAXIFOLIN]
3. Oc1cc(O)c2c(c1)O[C@H](c1ccc(O)c(O)c1)[C@@H](O)C2
4. Oc1cc(O)c2c(c1)O[C@H](c1ccc(O)c(O)c1)[C@@H](O)[C@@H]2c1c(O)cc2c(c1O)C[C@@H](O)[C@@H](c1ccc(O)c(O)c1)O2
5. Oc1cc(O)c2c(c1)O[C@H](c1ccc(O)c(O)c1)[C@H](O)[C@H]2c1c(O)cc(O)c2c1O[C@H](c1ccc(O)c(O)c1)[C@H](O)C2
6. Oc1cc(O)c2c(c1)O[C@H](c1ccc(O)c(O)c1)[C@H](O)[C@H]2c1c(O)cc(O)c2c1O[C@H](c1ccc(O)c(O)c1)[C@H](O)[C@H]2c1c(O)cc(O)c2c1O[C@H](c1ccc(O)c(O)c1)[C@H](O)C2

Result:
[1.16, 2.93, 2.81, 1.29, 1.76, 0.78]

Provide each entry's log10(IC50) from the list below.
1. Oc1cc(O)c2c(c1)O[C@H](c1ccc(O)c(O)c1)[C@@H](O)[C@@H]2c1c(O)cc(O)c2c1O[C@H](c1ccc(O)c(O)c1)[C@@H](O)C2
2. Oc1cc(O)c2c(c1)O[C@H](c1ccc(O)c(O)c1)[C@H](O)C2 [(-)-EPICATECHIN]
3. Oc1cc(O)c2c(c1)O[C@@]1(c3ccc(O)c(O)c3)Oc3cc(O)c4c(c3[C@@H]2[C@H]1O)O[C@H](c1ccc(O)c(O)c1)[C@H](O)C4
4. Oc1cc(O)c2c(c1)O[C@H](c1ccc(O)c(O)c1)[C@@H](O)[C@@H]2c1c(O)cc2c(c1O)C[C@H](O)[C@@H](c1ccc(O)c(O)c1)O2
5. O=C(/C=C/c1ccc(O)c(O)c1)O[C@H](Cc1ccc(O)c(O)c1)C(=O)O

Result:
[1.58, 2.82, 1.06, 1.27, 1.34]

---

# Protocol Text: Cytotoxicity against human MT4 cells by MTT assay
# Type: cell-based
Observation Type: log10(CC50) (log10 of the value in µg/mL)
Note: values are log10 of CC50 expressed in µg/mL.

Example cases with answers are listed next.
Molecule	Readout Number
Oc1cc(O)c2c(c1)O[C@H](c1ccc(O)c(O)c1)[C@@H](O)[C@@H]2c1c(O)cc(O)c2c1O[C@H](c1ccc(O)c(O)c1)[C@@H](O)C2	2.07
Oc1cc(O)c2c(c1)O[C@H](c1ccc(O)c(O)c1)[C@@H](O)[C@@H]2c1c(O)cc2c(c1O)C[C@H](O)[C@@H](c1ccc(O)c(O)c1)O2	2.15
Oc1cc(O)c2c(c1)O[C@H](c1ccc(O)c(O)c1)[C@H](O)[C@H]2c1c(O)cc2c(c1O)C[C@@H](O)[C@@H](c1ccc(O)c(O)c1)O2	1.73
Oc1cc(O)c2c(c1)O[C@H](c1ccc(O)c(O)c1)[C@H](O)C2 [(-)-EPICATECHIN]	2.13
Cc1cn([C@H]2C[C@H](N=[N+]=[N-])[C@@H](CO)O2)c(=O)[nH]c1=O	0.41
Oc1cc(O)c2c(c1)O[C@@]1(c3ccc(O)c(O)c3)Oc3cc(O)c4c(c3[C@@H]2[C@H]1O)O[C@H](c1ccc(O)c(O)c1)[C@@H](O)C4	2.16
Oc1cc(O)c2c(c1)O[C@H](c1ccc(O)c(O)c1)[C@@H](O)C2	1.94

From here, focus on the item given below.
Query: Looking for the measured log10(CC50) of "Oc1cc(O)c2c(c1)O[C@H](c1ccc(O)c(O)c1)[C@H](O)[C@H]2c1c(O)cc(O)c2c1O[C@H](c1ccc(O)c(O)c1)[C@H](O)C2" , can you help?
Result: 2.13

---

Consider the following molecules; for each one, report its MBC.
# Test system: Enterobacter cloacae
# Protocol Text: Antimicrobial activity against Enterobacter cloacae
# Type: functional

Example cases with answers are listed next.
Molecule	System Name	Observation Type	Result
Oc1cc(O)c2c(c1)O[C@H](c1ccc(O)c(O)c1)[C@@H](O)[C@@H]2c1c(O)cc2c(c1O)C[C@H](O)[C@@H](c1ccc(O)c(O)c1)O2	Enterobacter cloacae	MBC	> 100 µg/mL
Oc1cc(O)c2c(c1)O[C@H](c1ccc(O)c(O)c1)[C@H](O)C2 [(-)-EPICATECHIN]	Enterobacter cloacae	MBC	> 100 µg/mL

Query: Give Enterobacter cloacae MBC for "Oc1cc(O)c2c(c1)O[C@@]1(c3ccc(O)c(O)c3)Oc3cc(O)c4c(c3[C@@H]2[C@H]1O)O[C@H](c1ccc(O)c(O)c1)[C@H](O)C4"
Result: > 100 µg/mL

---

# Protocol Text: Cytotoxicity against human MT4 cells by MTT assay
# Type: cell-based
Observation Type: log10(CC50) (log10 of the value in µg/mL)
Note: values are log10 of CC50 expressed in µg/mL.

Molecule	log10(CC50)
Oc1cc(O)c2c(c1)O[C@H](c1cc(O)c(O)c(O)c1)[C@H](O)C2 [EPIGALLOCATECHIN]	1.21
Oc1cc(O)c2c(c1)O[C@H](c1ccc(O)c(O)c1)[C@@H](O)[C@@H]2c1c(O)cc(O)c2c1O[C@H](c1ccc(O)c(O)c1)[C@H](O)C2	-0.52
Oc1cc(O)c2c(c1)O[C@@]1(c3ccc(O)c(O)c3)Oc3cc(O)c4c(c3[C@@H]2[C@H]1O)O[C@H](c1ccc(O)c(O)c1)[C@H](O)C4 [PROANTHOCYANIDIN A2]	2.14

Provide each entry's log10(CC50) from the list below.
1. Oc1cc(O)c2c(c1)O[C@H](c1ccc(O)c(O)c1)[C@@H](O)[C@@H]2c1c(O)cc2c(c1O)C[C@@H](O)[C@@H](c1ccc(O)c(O)c1)O2
2. O=C1c2c(O)cc(O)cc2O[C@H](c2ccc(O)c(O)c2)[C@H]1O [(+)-TAXIFOLIN]

Result:
[2.10, 1.40]

Query: Looking for the measured log10(CC50) of Oc1cc(O)c2c(c1)O[C@H](c1ccc(O)c(O)c1)[C@H](O)[C@H]2c1c(O)cc(O)c2c1O[C@H](c1ccc(O)c(O)c1)[C@H](O)[C@H]2c1c(O)cc(O)c2c1O[C@H](c1ccc(O)c(O)c1)[C@H](O)C2 [PROCYANIDIN C1] , can you help?
Result: 1.22

---

# System: Enterobacter cloacae
# Protocol Text: Antimicrobial activity against Enterobacter cloacae
# Format: functional
Consider the following molecules; for each one, report its MIC.

Example cases with answers are listed next.
Molecule Smiles	Result
Oc1cc(O)c2c(c1)O[C@@]1(c3ccc(O)c(O)c3)Oc3cc(O)c4c(c3[C@@H]2[C@H]1O)O[C@H](c1ccc(O)c(O)c1)[C@H](O)C4	> 100 µg/mL
Oc1cc(O)c2c(c1)O[C@H](c1ccc(O)c(O)c1)[C@H](O)[C@H]2c1c(O)cc2c(c1O)C[C@@H](O)[C@@H](c1ccc(O)c(O)c1)O2	> 100 µg/mL

From here, focus on the item given below.
Query: Looking for the measured MIC of "Oc1cc(O)c2c(c1)O[C@@]1(c3ccc(O)c(O)c3)Oc3cc(O)c4c(c3[C@@H]2[C@H]1O)O[C@H](c1ccc(O)c(O)c1)[C@@H](O)C4" , can you help?
Result: > 100 µg/mL
